Every entry's value here was drawn from the RNAGym collection of RNA variant scans (doi:10.7554/elife.80360).

B1: CPEB3 Ribozyme (parent)
chain: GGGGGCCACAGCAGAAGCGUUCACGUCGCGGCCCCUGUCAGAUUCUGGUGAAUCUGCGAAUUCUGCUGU

Variants of: B1
Assay: self-cleavage, relative activity (ratio to wild type); higher = more cleavage; co-transcriptional
ASSAY_READOUT: self-cleavage
One number for each entry.

Record excerpt, results attached:
Prompt: Form field: reported self-cleavage of U49C C57U
Completion: 0.345

Prompt: Which self-cleavage reading was recorded for the variant G14C U36C ?
Completion: 0.37

Prompt: Which self-cleavage is listed for C22A U49C ?
Completion: 0.209

Prompt: What value of self-cleavage has been recorded for this entry: C18G G19U
Completion: 0.153

Prompt: So what's the measured self-cleavage for this one? A8C C27A
Completion: 0.555

Prompt: Item G3A G28C has what recorded self-cleavage?
Completion: 0.0675

Now look at this one.
Prompt: Record request: self-cleavage value, item U49C G68C
Completion: 0.998
